Biological target: WT PfMDH (Plasmodium falciparum)
Construct: The full-length WT PfMDH gene was cloned into pETM-13; made in house; host or cells: E. coli Rosetta 2 (DE3) pLysS
Sequence (Q6VVP7 entry or part of it): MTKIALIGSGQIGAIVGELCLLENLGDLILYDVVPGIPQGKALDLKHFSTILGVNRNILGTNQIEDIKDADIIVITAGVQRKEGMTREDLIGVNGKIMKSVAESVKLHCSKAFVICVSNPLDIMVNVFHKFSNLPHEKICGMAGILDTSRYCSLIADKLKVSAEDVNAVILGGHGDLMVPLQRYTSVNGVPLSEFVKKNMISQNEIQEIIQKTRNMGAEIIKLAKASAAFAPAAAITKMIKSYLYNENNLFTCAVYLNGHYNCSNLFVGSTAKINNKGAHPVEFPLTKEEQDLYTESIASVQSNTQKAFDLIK
Assay: Activity screening of 4DT / 4-phenylthiazol-2-amine derivatives (oxidation of malate, absorbance at 340 nm)
Type: biochemical
Settings: 500 µM compound, Dunnett's multiple comparisons test; read-out: Mean Diff. (positive control vs. compound)
RESULT_TYPE: inhibition at 500 µM (%)
The reply should contain only the number, in %.

Exercise: Record Cc1ccc(-c2csc(N)n2)cc1C : what is its inhibition at 500 µM with WT PfMDH (Plasmodium falciparum)?
Key: 48.5

Exercise: Now this one: NCc1ccc(-c2csnn2)cc1
Key: 35

Exercise: Now this one: Nc1nc(-c2ccc(F)cc2)cs1
Key: 49

Exercise: Now this one: O=C(O)c1nc(-c2ccccc2)cs1
Key: 35

Exercise: Now this one: Cc1c(CO)cnn1-c1ccccc1
Key: 20

Exercise: Now this one: O=C(O)c1cc(-c2cccs2)on1
Key: 40.5

Exercise: Now this one: Nc1nc(-c2ccc(F)c(F)c2)cs1
Key: 38.5

Exercise: Now this one: CC(C)(C)OC(=O)CNC(=O)c1cc(-c2cccs2)on1
Key: 79.5

Exercise: Now this one: Nc1nc(-c2ccc(Cl)c(Cl)c2)cs1
Key: 76.5

Exercise: Now this one: Nc1cc(-c2ccccc2)[nH]n1
Key: 47.5

###

Target: WT PfMDH (Plasmodium falciparum)
Construct: The full-length WT PfMDH gene was cloned into pETM-13; made in house; host or cells: E. coli Rosetta 2 (DE3) pLysS
Test: Microscale thermophoresis (MST) binding to fluorescently labeled PfMDH
Conditions: MST, 50 nM labeled WT PfMDH, ligand 240 nM to 4 mM; read-out: Kd
RESULT_TYPE: Kd (µM)
The reply should contain only the number, in µM.

Exercise: Look up Kd for this compound: Nc1nc(-c2ccc(F)c(F)c2)cs1
Key: 99

###

Molecular target: PfMDH (Plasmodium falciparum, UniProt Q6VVP7)
Construct: The full-length WT PfMDH gene was cloned into pETM-13; made in house; host or cells: E. coli Rosetta 2 (DE3) pLysS
Sequence (Q6VVP7 entry or part of it): as above
Assay: Thermal shift assay (TSA)
Format: binding
Conditions: Temperature 90; three replicate columns
RESULT_TYPE: TSA melting curve raw fluorescence signal
Lab note: write the figure by itself, no unit.

Exercise: Record Nc1nc(-c2ccc(F)c(F)c2)cs1 : what is its TSA melting curve raw fluorescence signal with PfMDH (Plasmodium falciparum, UniProt Q6VVP7)?
Key: 5633.721

Exercise: Now this one: Nc1nc(-c2ccccc2)cs1
Key: 5422.458

Exercise: Now this one: CC(C)c1ccc(-c2csc(N)n2)cc1
Key: 4698.144
